- System: HCC-2998 colon
- assay-method-text: NCI-60 one-dose screen, 48 h
- reported-conditions: 10 µM unless noted
This is part of a sample that, as a whole, favours compounds with a hit. Of some 83,000 tested, about 20% had one in any assay. Activity calls are given as the source filed them. How the source made its calls: active means growth percent below 10; inactive means the rest.
A correct response names exactly one class from active, inactive

Would you please look over these solved cases?
# molecule, classification
records = [
    ("C#Cc1cccc(Nc2nc3cc([N+](=O)[O-])ccc3nc2Nc2ccc(O)cc2)c1", "active"),
    ("CCCCCCCCCCCC1=NC(C)(C)CN1CCO", "active"),
    ("CCOC(=O)c1cc(N)nc2ccccc12", "inactive"),
    ("CS(=O)(=O)c1ccc(Cl)c([N+](=O)[O-])c1", "inactive"),
    ("CCCCn1cnc2c(SCc3ccc([N+](=O)[O-])cc3)nc(N)nc21", "inactive"),
]

Problem: Outcome? CN1C(=O)N(C)C2C1NN=c1s/c(=C\c3ccc(Br)cc3)c(=O)n12 (stereo unspecified)
Solution: inactive

Problem: Outcome? `Cc1ccccc1Nc1n[nH]c(Cc2ccccc2)n1`
Solution: inactive
